- Assay procedure: Pharmacokinetic study in mice
- Assay type: in vivo, CD1 mice
- Assay context: CD1, mouse, plasma, sc, 10 mg/kg, s.c, 10 mg/kg, read-out: Cmax (head Co*/)
Reported metric: Cmax

I would be grateful if you could share the reported Cmax for Cc1cccc(CCNc2nc3c(C)c(C)nn3c(N)c2C#N)n1 [Example 13] .
1350 ng/mL

* * *

- Assay procedure: Pharmacokinetic study in mice
- Assay type: in vivo, CD1 mice
- Assay context: CD1, mouse, plasma, po, 100 mg/kg, 100 mg/kg oral, read-out: Tmax
- Procedure: Intravenous (i.v) and Oral formulations for pharmacokinetic (PK) studies was formulated in different vehicles and excipients to achieve the desirable solubility for intravenous and Oral routes of administration. Appropriate amount of the test compound was weighed and dissolved in required volume of the vehicles, followed by vertexing for a few seconds to dissolve the compound. […] Plasma samples were analysed for a fit-for purpose LC-MS/MS method with a lower limit of quantification. […]
Reported metric: Tmax (min)
# value in min; strip the unit string

I would be grateful if you could share the reported Tmax for CCc1c(C)nn2c(N)c(C#N)c(NCCc3ccn(C4COCC4CO)n3)nc12 (single isomer, unassigned; (-)) [Example 122b] .
15

* * *

- Assay procedure: Cell based permeability/efflux Caco-2 assay
- Assay type: in vitro ADME
- Assay context: human; Caco-2, 10 μM, apical to basolateral
- Experimental: Briefly, Permeability in a Caco-2 monolayer was determined at 10 μM. […] TEER was measured both before and after performing all the transport experiments. […] Samples were analyzed including starting dosing solution, donor solution, and receiver solution by LC/MS/MS (API-4500). Concentrations of test compound was expressed as area ratio of analytes versus internal standard (IS). […] The mean apparent permeability (Papp, X 10^−[…]) is calculated as follows […]
Quick reference: Papp A→B at 120 min, 10 µM of the listed items.
# value in ×10⁻⁶ cm/s; strip the unit string

Check out these entries, answers already filled in.
Cc1cccc(CCNc2nc3c(C)c(C)nn3c(N)c2C#N)n1 : 58
CCc1c(C)nn2c(N)c(C#N)c(NCCc3ccn(C4(CO)CC4)n3)nc12 : 18.4

Then there is this molecule:
I would be grateful if you could share the reported Papp A→B at 120 min, 10 µM for CCc1c(C)nn2c(N)c(C#N)c(NCCc3ccn(C4COCC4CO)n3)nc12 (single isomer, unassigned; (-)) [Example 122b] .
14.4

* * *

- Assay procedure: Pharmacokinetic study in mice
- Assay type: in vivo, CD1 mice
- Assay context: CD1, mouse, plasma, iv, i.v, 15 mg/kg, read-out: Vss
Reported metric: Vd
Your reply should be a number followed by the unit it is expressed in.

I would be grateful if you could share the reported Vd for "CCc1c(C)nn2c(N)c(C#N)c(NCCc3ccn(C4(CO)CC4)n3)nc12" .
1 L/kg

* * *

- Experimental system: A2A receptor (Homo sapiens)
- Construct: host or cells: HEK-293
- Sequence (P29274 whole entry): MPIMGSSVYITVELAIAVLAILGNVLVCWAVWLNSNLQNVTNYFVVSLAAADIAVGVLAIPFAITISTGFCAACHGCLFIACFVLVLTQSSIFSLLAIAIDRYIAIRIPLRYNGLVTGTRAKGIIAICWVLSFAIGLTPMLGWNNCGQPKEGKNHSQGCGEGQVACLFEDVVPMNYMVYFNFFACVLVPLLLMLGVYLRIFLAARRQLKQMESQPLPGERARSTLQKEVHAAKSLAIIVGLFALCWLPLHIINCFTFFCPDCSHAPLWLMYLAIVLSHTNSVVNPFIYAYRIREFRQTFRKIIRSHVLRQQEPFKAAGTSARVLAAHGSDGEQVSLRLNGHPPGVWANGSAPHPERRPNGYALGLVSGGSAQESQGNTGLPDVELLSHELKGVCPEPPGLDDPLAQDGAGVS
- Assay procedure: A2aR antagonism IC50, cAMP TR-FRET (Lance Ultra) in HEK-293 cells, NECA as agonist;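 further: compounds tested from 10 µM down to 0.08 nM in buffer with Rolipram at room temperature, TR-FRET cAMP signal read 1 h after adding Eu-cAMP tracer and ULight anti-cAMP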
- Assay type: cell-based
- Assay context: A2AR IC50 (nM) (@5 nM NECA), HEK-293 cells expressing A2A receptor; agonist NECA 5 nM (EC90); inhibition of cAMP
Threshold check on IC50: strictly below 0.7 nM is Yes; on or above 0.7 nM is No.

Consider the worked cases shown below.
Cc1cccc(CCNc2nc3c(C)c(C)nn3c(N)c2C#N)n1 [Example 13] : Yes
CCc1c(C)nn2c(N)c(C#N)c(NCCc3nc(C4(CO)CC4)cs3)nc12 [Example 66] : No
CCc1cccc(CNc2nc3c(C)c(C)nn3c(N)c2C#N)n1 [Example 7] : Yes
Cc1nn2c(N)c(C#N)c(NCCc3ccn(C(C)(C)CO)n3)nc2c1C [Example 31] : No

Kindly consider the entry below.
Report whether reported IC50 is lower than 0.7 nM (strictly) for CCc1c(C)nn2c(N)c(C#N)c(NCCc3ccc(F)cn3)nc12 [Example 21]
No

* * *

- Experimental system: A2B receptor (Homo sapiens, UniProt P29275)
- Assay procedure: A2bR antagonism IC50, cAMP TR-FRET in HEK-293 cells, high concentration of adenosine (30 μM);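 further: compounds preincubated 10 min with cells, then adenosine stimulation 30 min at room temperature in buffer with Rolipram 100 µM and EHNA 30 µM, TR-FRET read after 1 h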
- Assay context: A2BR IC50 (nM) (@30 μM Adenosine), HEK-293 cells expressing A2B receptor; agonist adenosine 30 μM; 2% HSA; inhibition of cAMP
Reported metric: IC50 (nM)
# value in nM; strip the unit string

Check out these entries, answers already filled in.
CCc1c(C)nn2c(N)c(C#N)c(NCCc3ccn(C4COCC4CO)n3)nc12 (single isomer, unassigned; (-)) [Example 122b] : 521
Cc1nn2c(N)c(C#N)c(NCCc3cccc(CCO)n3)nc2c1C : 1790
Cc1nn2c(N)c(C#N)c(NCCc3ccn(C4COCC4CO)n3)nc2c1C (single isomer, unassigned; (+)) [Example 133a] : 6690
CCc1cnn2c(N)c(C#N)c(NCCc3cc(C)n(C4(CO)CC4)n3)nc12 : 3800
CCc1c(C)nn2c(N)c(C#N)c(NCCc3cccn(CCCNC(C)=O)c3=O)nc12 : 1130
CCc1c(C)nn2c(N)c(C#N)c(NCCc3ccn(C4COCC4CO)n3)nc12 (racemic) [Example 121] : 895

I would be grateful if you could share the reported IC50 for CCc1c(C)nn2c(N)c(C#N)c(NCCc3cccn(CC[S+](C)[O-])c3=O)nc12 (single isomer, unassigned; (-)) [Example 144b] .
815

I would be grateful if you could share the reported IC50 for CCc1c(C)nn2c(N)c(C#N)c(NCCc3ccn(CCC[S+](C)[O-])n3)nc12 (single isomer, unassigned; (-)) [Example 162a] .
5790

I would be grateful if you could share the reported IC50 for CCc1c(C)nn2c(N)c(C#N)c(NCCc3cccc(C(C)O)n3)nc12 (single isomer, unassigned; (-)) [Example 159b] .
1020

I would be grateful if you could share the reported IC50 for "CCc1c(C)nn2c(N)c(C#N)c(NCCc3ccn(C4(CCO)CC4)n3)nc12" .
2220

I would be grateful if you could share the reported IC50 for "CCc1c(C)nn2c(N)c(C#N)c(NCCc3cccc(OCCO)n3)nc12" .
1630

I would be grateful if you could share the reported IC50 for Cc1nn2c(N)c(C#N)c(NCCc3ccn(C4COCC4CO)n3)nc2c1Cl (stereo not drawn) .
2170

I would be grateful if you could share the reported IC50 for CCc1c(C)nn2c(N)c(C#N)c(NCCc3ccn(C4CCC4CO)n3)nc12 (single isomer, unassigned; (+)) [Example 78] .
798

I would be grateful if you could share the reported IC50 for "Cc1nn2c(N)c(C#N)c(NCCc3cccc(CNCCO)n3)nc2c1Cl" .
1830

I would be grateful if you could share the reported IC50 for CCc1c(C)nn2c(N)c(C#N)c(NCCc3cccc(C(C)O)n3)nc12 (single isomer, unassigned; (+)) [Example 159a] .
911

I would be grateful if you could share the reported IC50 for "Cc1nn2c(N)c(C#N)c(NCCc3cc(C)n(C4(CO)CC4)n3)nc2c1Br" .
2370

I would be grateful if you could share the reported IC50 for "Cc1nn2c(N)c(C#N)c(NCCc3cccc(C(F)(F)CO)n3)nc2c1Cl" .
9070

* * *

- Assay procedure: Pharmacokinetic study in rats
- Format: in vivo, male Sprague-Dawley (SD) rats
- Assay context: male, Sprague-Dawley, rat, plasma, oral, 30 mg/kg, Rat, oral vs IV bolus, doses per compound; read-out: % F (bioavailability)
Reported metric: bioavailability (%)
# value in %; strip the unit string

I would be grateful if you could share the reported bioavailability for CCc1c(C)nn2c(N)c(C#N)c(NCCc3ccn(C4COCC4CO)n3)nc12 (single isomer, unassigned; (-)) [Example 122b] .
21

* * *

- Experimental system: A2B receptor (Homo sapiens)
- Sequence (P29275 1-332): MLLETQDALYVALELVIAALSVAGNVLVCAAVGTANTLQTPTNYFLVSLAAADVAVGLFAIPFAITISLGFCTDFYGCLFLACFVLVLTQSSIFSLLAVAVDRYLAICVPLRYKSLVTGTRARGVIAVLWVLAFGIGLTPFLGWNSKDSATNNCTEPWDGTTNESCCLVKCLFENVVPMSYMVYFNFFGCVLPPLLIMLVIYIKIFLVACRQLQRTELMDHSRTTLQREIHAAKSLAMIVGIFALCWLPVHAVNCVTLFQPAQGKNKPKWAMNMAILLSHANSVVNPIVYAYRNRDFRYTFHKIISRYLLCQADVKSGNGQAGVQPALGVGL
- Assay procedure: A2bR antagonism IC50, cAMP TR-FRET (Lance Ultra) in HEK-293 cells, NECA as agonist
- Format: cell-based
- Design: host or cells: HEK-293
- Assay context: HEK-293 cells expressing A2B receptor; agonist NECA 30 nM (EC90); inhibition of cAMP
Quick reference: log10(IC50) of the listed items.
Please keep in mind that the values are log10 of IC50 expressed in nM.

CCc1cccc(CCNc2nc3c(C)c(C)nn3c(N)c2C#N)n1 : 0.56

I would be grateful if you could share the reported log10(IC50) for "Cc1cccc(CCNc2nc3c(C(C)C)c(C)nn3c(N)c2C#N)n1" .
1.23

I would be grateful if you could share the reported log10(IC50) for "Cc1nn2c(N)c(C#N)c(NCCc3cccc(C(C)(C)CO)n3)nc2c1Cl" .
1.43

I would be grateful if you could share the reported log10(IC50) for "Cc1nn2c(N)c(C#N)c(NCCc3cccc(C4(CO)CC4)n3)nc2c1C" .
0.78

I would be grateful if you could share the reported log10(IC50) for "Cc1nn2c(N)c(C#N)c(NCCc3ccn(C(C)(C)CO)n3)nc2c1Cl" .
1.34

I would be grateful if you could share the reported log10(IC50) for "Cc1nn2c(N)c(C#N)c(NCCc3ccn(C(C)(C)CO)n3)nc2c1C" .
1.71

I would be grateful if you could share the reported log10(IC50) for CCc1c(C)nn2c(N)c(C#N)c(NC(C)Cc3ccccn3)nc12 (single isomer, unassigned) [Example 22] .
0.34

I would be grateful if you could share the reported log10(IC50) for "CCc1c(C)nn2c(N)c(C#N)c(NCCc3nn(C(C)(C)CO)cc3F)nc12" .
1.62

I would be grateful if you could share the reported log10(IC50) for "Cc1cccc([C@H](C)Nc2nc3c(C)c(C)nn3c(N)c2C#N)n1" .
2.74

I would be grateful if you could share the reported log10(IC50) for CCc1c(C)nn2c(N)c(C#N)c(NCCc3ccn(C4CCC4CO)n3)nc12 (single isomer, unassigned; (-)) [Example 79] .
0.30

I would be grateful if you could share the reported log10(IC50) for "Cc1cccc(CN(C)c2nc3c(C)c(C)nn3c(N)c2C#N)n1" .
3.23

I would be grateful if you could share the reported log10(IC50) for "Cc1cccc(CCNc2nc3c(C)c(C)nn3c(N)c2C#N)n1" .
0.53

I would be grateful if you could share the reported log10(IC50) for "CCc1c(C)nn2c(N)c(C#N)c(NCCc3ccn(C)n3)nc12" .
0.65

I would be grateful if you could share the reported log10(IC50) for CCc1c(C(F)F)nn2c(N)c(C#N)c(NCCc3cccc(C4CC4CO)n3)nc12 (stereo not drawn) .
0.95

I would be grateful if you could share the reported log10(IC50) for Cc1nn2c(N)c(C#N)c(NCCc3ccn(C4CCC4CN)n3)nc2c1Cl (stereo not drawn) .
1.72

I would be grateful if you could share the reported log10(IC50) for "Cc1nn2c(N)c(C#N)c(NCCc3cc(C)n(C4(CO)CC4)n3)nc2c1C" .
1.28

I would be grateful if you could share the reported log10(IC50) for Cc1nn2c(N)c(C#N)c(NCCc3cccc(C4CC4CO)n3)nc2c1C (stereo not drawn) .
0.32
